Target: 5-hydroxytryptamine receptor 1A (Rattus norvegicus, UniProt P19327)
Sequence (P19327 whole entry): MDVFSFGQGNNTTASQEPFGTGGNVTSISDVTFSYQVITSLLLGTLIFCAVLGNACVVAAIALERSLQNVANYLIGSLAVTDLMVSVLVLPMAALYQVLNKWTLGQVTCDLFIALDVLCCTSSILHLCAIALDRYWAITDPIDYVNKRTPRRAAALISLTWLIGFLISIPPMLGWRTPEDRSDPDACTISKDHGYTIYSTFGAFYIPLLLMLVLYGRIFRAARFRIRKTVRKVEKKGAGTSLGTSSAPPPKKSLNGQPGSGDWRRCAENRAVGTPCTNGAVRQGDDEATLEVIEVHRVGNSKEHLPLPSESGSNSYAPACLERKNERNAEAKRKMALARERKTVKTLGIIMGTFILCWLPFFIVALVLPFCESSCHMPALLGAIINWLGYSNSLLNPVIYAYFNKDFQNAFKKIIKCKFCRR
Experiment: Displacement of [3H]8-OH-DPAT from 5HT1A receptor in Rattus norvegicus (rat) cerebral cortex after 15 min by filter binding assay
Assay type: tissue-based
pKi: −log10 of the molar value.
READOUT_TYPE: pKi

# COMPOUND, READOUT_TYPE, ASSAY_RESULT
measured = [
    ("O=C1C2C3C=CC(C3)C2C(=O)N1OCC(O)CN1CCN(c2ccccc2)CC1 (stereo unspecified)", "pKi", 6.43),
]
